Entries annotated with measured inhibition
# measurement.target: L-lactate dehydrogenase (Plasmodium falciparum (isolate CDC / Honduras))
# assay.text: PfLDH activity inhibition – cell lysate, 3D7 strain, counter-screen for P. falciparum growth inhibition project (AID 2304);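 also: 0% = vehicle and 100% = reference inhibitor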
# measurement.context: P. falciparum 3D7 crude extract, LDH APAD/NBT absorbance; at 2 µM; active compounds read high
Provide only the numeric value, understood in %.

{"compound": "CC(C)CNCc1ccc(-c2cccc(CN(CCN(C)C)C(=O)NCCc3ccccc3)c2)cc1", "result.type": "inhibition", "endpoint.value": -6}
{"compound": "O=C(/C=C/c1ccc(Cl)c(Cl)c1)NC1CCC(CN2CCC(c3nc4ccccc4n3CCCO)CC2)CC1 (stereo not drawn)", "result.type": "inhibition", "endpoint.value": -5}

Record summary for CC(C)c1ccc(OCC(O)CN(C)C(C)C(O)c2ccccc2)c(Br)c1 (stereo not drawn) : reported inhibition = -3

Record summary for CCN(CC)Cc1ccc2c(=O)cc(CCc3cccc(F)c3F)n(CC(=O)N(Cc3ccc(-c4ccc(C(F)(F)F)cc4)cc3)C(C)C)c2c1 : reported inhibition = -6

Record summary for COc1ccc(C=C2SC(=N)N(c3ccccc3OC)C2=O)cc1 : reported inhibition = 3

Record summary for CC(=O)Nc1ccc(CN(Cc2ccc(OC(C)(C)C)cc2)Cc2ccc3c(c2)OCCO3)cc1 : reported inhibition = 5

Record summary for Cn1cncc1CNCc1ccc(-c2cccc(-c3nc4ccccc4[nH]3)c2)cc1 : reported inhibition = -1

Record summary for c1cc(Nc2nccc(-c3cnn4ncccc34)n2)cc(-c2cnco2)c1 : reported inhibition = 3

Record summary for O=C(NCCCN(Cc1ccc(F)cc1)c1ccccn1)C(c1cc2ccccc2o1)N1CCN(C(c2ccccc2)c2ccccc2)CC1 (stereo not drawn) : reported inhibition = 1

Record summary for COc1ccc(-c2nc3c(N)nc(N)nc3nc2C(C)C)cc1 : reported inhibition = 6

Record summary for COc1cc2c(cc1N(C(C)C)S(=O)(=O)c1sc3ccc(Cl)cc3c1C)CCNCC2 : reported inhibition = -3

Record summary for CC(C)N(CCOc1ccc2c(c1)N(C(=O)Nc1cc(Br)cc(C(F)(F)F)c1)CC2)C(C)C : reported inhibition = 5
